Data origin: paper PMC11532403

# method.description: Phase 1 trial: plasma pharmacokinetics
# Type: in vivo
# test.settings: human, oral, 120 mg, Cycle 1 Day 28, 120 mg BID (n = 3), read-out: Tmax mean
readout: Tmax (h)
Respond with the bare value in h.

Endpoint output: Tmax of COc1ccc(CN2C3CC2CN(c2ccc(-c4cc(N5CC(C)(O)C5)cn5ncc(C#N)c45)cn2)C3)cn1 . Value?
1

###

# method.description: 28-day repeat-dose toxicity
# Assay type: in vivo
# test.settings: male, SD, rat, plasma, po; males 30 mg/kg; read-out: Cmax at STD10, day 28
readout: Cmax

Recorded Cmax for COc1ccc(CN2C3CC2CN(c2ccc(-c4cc(N5CC(C)(O)C5)cn5ncc(C#N)c45)cn2)C3)cn1 [SY-5007] , please?
8160 ng/mL
